# tested_on: human FAK (Homo sapiens (Human), UniProt Q05397)
# Sequence (Q05397 whole entry): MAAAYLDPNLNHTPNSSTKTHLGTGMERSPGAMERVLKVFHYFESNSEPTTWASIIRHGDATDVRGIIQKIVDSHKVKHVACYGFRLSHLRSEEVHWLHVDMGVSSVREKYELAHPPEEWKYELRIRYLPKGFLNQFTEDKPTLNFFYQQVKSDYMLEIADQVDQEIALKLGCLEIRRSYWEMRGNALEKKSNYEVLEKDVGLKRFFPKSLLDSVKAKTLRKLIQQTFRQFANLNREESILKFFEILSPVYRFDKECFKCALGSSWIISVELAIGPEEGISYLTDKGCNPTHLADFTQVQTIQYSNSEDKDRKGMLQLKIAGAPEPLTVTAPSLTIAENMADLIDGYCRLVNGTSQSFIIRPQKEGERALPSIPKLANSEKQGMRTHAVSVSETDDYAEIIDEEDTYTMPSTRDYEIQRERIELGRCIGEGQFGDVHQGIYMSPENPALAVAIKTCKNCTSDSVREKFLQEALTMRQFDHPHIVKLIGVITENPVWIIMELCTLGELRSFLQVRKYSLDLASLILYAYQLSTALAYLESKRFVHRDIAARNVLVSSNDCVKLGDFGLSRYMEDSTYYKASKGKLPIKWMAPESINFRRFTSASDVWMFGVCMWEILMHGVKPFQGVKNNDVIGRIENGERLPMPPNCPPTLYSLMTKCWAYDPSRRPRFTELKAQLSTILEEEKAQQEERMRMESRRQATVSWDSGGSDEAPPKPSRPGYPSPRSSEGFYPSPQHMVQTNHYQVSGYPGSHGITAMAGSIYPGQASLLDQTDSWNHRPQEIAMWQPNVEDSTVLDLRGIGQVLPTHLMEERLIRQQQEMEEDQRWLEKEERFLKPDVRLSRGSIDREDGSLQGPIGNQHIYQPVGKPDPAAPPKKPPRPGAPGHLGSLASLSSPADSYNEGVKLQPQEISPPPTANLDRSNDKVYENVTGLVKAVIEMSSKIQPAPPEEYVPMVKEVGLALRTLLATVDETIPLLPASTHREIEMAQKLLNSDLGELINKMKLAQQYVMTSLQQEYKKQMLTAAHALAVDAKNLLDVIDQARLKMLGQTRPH
# condition_notes: read-out: FAK IC50
measurement_type: IC50 (µM)
One number for each entry, in µM.

Look over these answered cases.
substance_smiles	tested_on	numeric_value
CN1CCN(c2ccc(Nc3nc4c(-c5ccc(CS(C)(=O)=O)cc5)cccn4n3)cc2)CC1	human FAK (Homo sapiens (Human), UniProt Q05397)	1.72
FC(F)(F)c1cccc(-c2cccn3nc(Nc4ccc5c(c4)CCNCC5)nc23)c1	human FAK (Homo sapiens (Human), UniProt Q05397)	0.422
CP(C)(=O)c1ccc(-c2cccn3nc(N(CCS(C)(=O)=O)c4cccc(C5CCN(CCS(C)(=O)=O)CC5)c4)nc23)cc1	human FAK (Homo sapiens (Human), UniProt Q05397)	10
CN1CCN(c2cccc(Nc3nc4c(-c5ccc(S(C)(=O)=O)cc5)cccn4n3)c2)CC1	human FAK (Homo sapiens (Human), UniProt Q05397)	1.06
CN1CCN(c2ccc(Nc3nc4c(-c5ccc(S(C)(=O)=O)cc5)cc(C(F)(F)F)cn4n3)cn2)CC1	human FAK (Homo sapiens (Human), UniProt Q05397)	0.669
COCc1ccccc1-c1cccc2nc(Nc3ccc4c(c3)CCN(CCS(C)(=O)=O)CC4)nn12	human FAK (Homo sapiens (Human), UniProt Q05397)	2

For every record below, what is its IC50?
1. CS(=O)(=O)c1ccc(-c2cccn3nc(Nc4ccc5c(c4)CCNCC5)nc23)c(OCC(F)F)c1
2. CN1CCN(c2cccc(Nc3nc4c(NCc5ccc(F)cc5)cccn4n3)c2)CC1
3. COc1ccc(C(F)(F)F)cc1-c1cccn2nc(Nc3ccc(N4CCN(C)CC4)cc3)nc12
4. CN(c1ncccc1CNc1cccn2nc(Nc3ccc(N4CCN(CCO)CC4)cc3)nc12)S(C)(=O)=O
5. COc1ccc(C(F)(F)F)cc1-c1cccn2nc(Nc3ccc4c(c3)CCN(CC(=O)N(C)C)CC4)nc12
6. CN1CCN(c2cncc(Nc3nc4c(-c5ccc(S(C)(=O)=O)cc5)cccn4n3)n2)CC1
7. Cc1ccc(OCC(C)C)c(-c2cccn3nc(Nc4ccc5c(c4)CCNCC5)nc23)c1

Response:
[0.999, 10, 1.08, 0.379, 2, 10, 10]

---

Assign log10 IC50 to each entry below.
# tested_on: human FAK (Homo sapiens (Human))
# condition_notes: read-out: FAK IC50
log10 IC50, µM

These recorded examples may help you get a feel for the data.
substance_smiles	log10 IC50
CN1CCN(c2ccc(Nc3nc4c(Nc5ccccc5CN(C)S(C)(=O)=O)cccn4n3)cc2)CC1	0.00
Cn1ncc2c(-c3cccn4nc(Nc5ccc6c(c5)CCNCC6)nc34)cccc21	0.01
CN1CCN(c2ccc(Nc3nc4cccc(-c5ccc(S(C)(=O)=O)cc5)n4n3)cc2)CC1	-0.38
CN1CCN(c2cccc(Nc3nc4cccc(-c5ccc(CN6CCS(=O)(=O)CC6)cc5)n4n3)c2)CC1	-0.30
CN1CCN(c2ccc(Nc3nc4c(-c5ccc(S(C)(=O)=O)cc5)cc(F)cn4n3)cc2)CC1	0.48

I need log10 IC50 for every entry listed below, if you could help.
1. CCn1cc(Nc2nc3c(Oc4ccc(S(C)(=O)=O)cc4)cccn3n2)cn1
2. CCOc1ccc(Cl)cc1-c1cccn2nc(Nc3ccc4c(c3)CCNCC4)nc12
3. COc1cnc(-c2cccn3nc(Nc4ccc(C5CCNCC5)cc4)nc23)cn1

Response:
1: 1.00; 2: 0.09; 3: 0.39
